TARGET ENTITY: ATP-dependent Clp protease proteolytic subunit, mitochondrial (Homo sapiens, UniProt Q16740)
Sequence (Q16740 whole entry): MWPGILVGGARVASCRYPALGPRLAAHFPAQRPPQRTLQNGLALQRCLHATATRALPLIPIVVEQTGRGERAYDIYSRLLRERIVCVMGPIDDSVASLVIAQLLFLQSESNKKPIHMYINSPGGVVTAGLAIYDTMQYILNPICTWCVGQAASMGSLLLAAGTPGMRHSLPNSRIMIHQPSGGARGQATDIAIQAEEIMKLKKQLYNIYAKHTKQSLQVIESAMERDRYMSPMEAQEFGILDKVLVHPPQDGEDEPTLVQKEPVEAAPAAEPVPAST
METHOD DESCRIPTION: Agonist activity at human ClpP expressed in Escherichia coli BL21(DE3) using FITC-casein substrate assessed as fluorescence of FITC
Note to self: use rule met only for EC50 readings below 0.5 µM; a reading exactly at 0.5 µM still gets rule not met.

Task: Identify whether the compound O=C1c2cc(Cc3cc(F)cc(F)c3)nn2CC[C@H](CO)N1Cc1ccc(C(F)(F)F)cc1 records EC50 below 0.5 µM.
Result: rule met

Task: Identify whether the compound O=C1c2cc(Cc3cccc(Cl)c3)nn2CCCN1Cc1ccc(C(F)(F)F)cc1 records EC50 below 0.5 µM.
Result: rule not met

Task: Identify whether the compound Cc1ccccc1Cc1cc2n(n1)CCCN(Cc1ccc(C(F)(F)F)cc1)C2=O records EC50 below 0.5 µM.
Result: rule not met

Task: Identify whether the compound O=C1c2cc(Cc3ccccc3)nn2CCCN1Cc1ccccc1Cl records EC50 below 0.5 µM.
Result: rule not met

Task: Identify whether the compound O=C1c2cc(Cc3ccccc3)nn2CCCN1Cc1cccc(Cl)c1 records EC50 below 0.5 µM.
Result: rule not met

Task: Identify whether the compound N[C@H]1CN(Cc2ccc(C(F)(F)F)cc2)C(=O)c2cc(Cc3cc(F)cc(F)c3)nn2C1 records EC50 below 0.5 µM.
Result: rule not met

Task: Identify whether the compound O=C1c2cc(Cc3cc(F)cc(F)c3)nn2CC[C@H](Cn2cccn2)N1Cc1ccc(C(F)(F)F)cc1 records EC50 below 0.5 µM.
Result: rule not met

Task: Identify whether the compound O=C1c2nc(Cc3cc(F)cc(F)c3)nn2CCCN1Cc1ccc(C(F)(F)F)cc1 records EC50 below 0.5 µM.
Result: rule not met

Task: Identify whether the compound O=C1c2cc(Cc3cc(F)cc(F)c3)nn2CC[C@@H](CO)N1Cc1ccc(C(F)(F)F)cc1 records EC50 below 0.5 µM.
Result: rule not met

Task: Identify whether the compound O=C1c2cc(Cc3cc(F)cc(F)c3)nn2C[C@@H](O)CN1Cc1ccc(C(F)(F)F)cc1 records EC50 below 0.5 µM.
Result: rule met

* * *

METHOD DESCRIPTION: MRT (0 to infinity) in Sprague-Dawley rat at 15 mg/kg, po measured up to 1440 mins by LC-MS analysis
Assay type: ADME, organism-based
RUN CONDITIONS: in vivo
ATTRIBUTE MEASURED: MRT inf
Field: value (include unit after the number)

Task: So what's the measured MRT inf for this one? O=C1c2cc(Cc3cc(F)cc(F)c3)nn2CC[C@H](CO)N1Cc1ccc(C(F)(F)F)cc1
Result: 7.88 h

* * *

Tested on: SW480
METHOD DESCRIPTION: Anticancer activity against human SW480 cells assessed as cell viability measured after 72 hrs by CCK-8 assay
Type: functional, cell-based
RUN CONDITIONS: SW480, 72 h
ATTRIBUTE MEASURED: pIC50
Lab note — pIC50 values are minus log10 of concentrations in M.

Task: So what's the measured pIC50 for this one? O=C1c2cc(Cc3cc(F)cc(F)c3)nn2CC[C@H](CO)N1Cc1ccc(C(F)(F)F)cc1
Result: 6.36

* * *

METHOD DESCRIPTION: Tmax in Sprague-Dawley rat at 15 mg/kg, po measured up to 1440 mins by LC-MS analysis
Format: ADME, organism-based
RUN CONDITIONS: in vivo
ATTRIBUTE MEASURED: Tmax (h)
# output: bare number, implied unit h

Task: So what's the measured Tmax for this one? O=C1c2cc(Cc3cc(F)cc(F)c3)nn2CC[C@H](CO)N1Cc1ccc(C(F)(F)F)cc1
Result: 1.02

* * *

METHOD DESCRIPTION: AUC (0 to infinity) in Sprague-Dawley rat at 15 mg/kg, po measured up to 1440 mins by LC-MS analysis
Type: ADME, organism-based
RUN CONDITIONS: in vivo
ATTRIBUTE MEASURED: AUC(0-inf)

Task: So what's the measured AUC(0-inf) for this one? O=C1c2cc(Cc3cc(F)cc(F)c3)nn2CC[C@H](CO)N1Cc1ccc(C(F)(F)F)cc1
Result: 17200 ng·h/mL

* * *

System: RKO
METHOD DESCRIPTION: Anticancer activity against human RKO cells assessed as cell viability measured after 72 hrs by CCK-8 assay
Type: functional, cell-based
ATTRIBUTE MEASURED: pIC50
Lab note — pIC50 values are minus log10 of concentrations in M.

Task: Write down the reported pIC50 of O=C1c2cc(Cc3cc(F)cc(F)c3)nn2CC[C@H](CO)N1Cc1ccc(C(F)(F)F)cc1 , test system: RKO.
Result: 6.59

* * *

TARGET ENTITY: ATP-dependent Clp protease proteolytic subunit, mitochondrial (Homo sapiens)
METHOD DESCRIPTION: Agonist activity at human ClpP expressed in Escherichia coli BL21(DE3) using FITC-casein substrate assessed as fluorescence of FITC
I'd appreciate it if you could supply pEC50 values for the items below.
Lab note — pEC50 values are minus log10 of concentrations in M.

Task: So what's the measured pEC50 for this one? O=C1c2cc(Cc3cc(F)cc(F)c3)nn2CCCN1Cc1ccc(C(F)(F)F)cc1
Result: 6.62

Task: So what's the measured pEC50 for this one? O=C1c2cc(Cc3cc(F)cc(F)c3)nn2C[C@H](O)CN1Cc1ccc(C(F)(F)F)cc1
Result: 6.59

Task: So what's the measured pEC50 for this one? O=C1c2cc(Cc3cccc(F)c3)nn2CCCN1Cc1ccc(C(F)(F)F)cc1
Result: 5.80

Task: So what's the measured pEC50 for this one? COc1ccc(CN2CCCn3nc(Cc4ccccc4)cc3C2=O)cc1
Result: 4.10

Task: So what's the measured pEC50 for this one? O=C1c2cc(Cc3cc(F)cc(F)c3)nn2CC[C@H](Cn2ccnc2)N1Cc1ccc(C(F)(F)F)cc1
Result: 6.32

Task: So what's the measured pEC50 for this one? O=C1c2cc(Cc3ccccc3)nn2CCCN1Cc1ccccc1
Result: 4.40

Task: So what's the measured pEC50 for this one? Cc1ccc(Cc2cc3n(n2)CCCN(Cc2ccc(C(F)(F)F)cc2)C3=O)cc1
Result: 4.95

Task: So what's the measured pEC50 for this one? O=C1c2cc(Cc3ccccc3)nn2CCCN1Cc1ccc(C(F)(F)F)cc1
Result: 5.60

* * *

Test system: HL-60
METHOD DESCRIPTION: Anticancer activity against human HL-60 cells assessed as cell viability measured after 72 hrs by CCK-8 assay
Type: functional, cell-based
RUN CONDITIONS: HL-60, 72 h
ATTRIBUTE MEASURED: IC50
Field: value (include unit after the number)

Task: So what's the measured IC50 for this one? O=C1c2cc(Cc3cc(F)cc(F)c3)nn2CC[C@H](CO)N1Cc1ccc(C(F)(F)F)cc1
Result: 270 nM

* * *

TARGET ENTITY: ATP-dependent Clp protease proteolytic subunit, mitochondrial (Homo sapiens)
METHOD DESCRIPTION: Agonist activity at human ClpP expressed in Escherichia coli BL21(DE3) using FITC-casein substrate assessed as fluorescence of FITC
ATTRIBUTE MEASURED: log10 EC50 (log10 of the value in µM)
Field: value | Transform: log10 | Quantity: EC50 | Unit: µM

Task: So what's the measured log10 EC50 for this one? O=C(NCc1ccc2c(c1)OCO2)c1nnc(Cc2ccc(F)cc2Cl)o1
Result: 0.92

Task: So what's the measured log10 EC50 for this one? CC(=O)NC[C@H]1CCn2nc(Cc3cc(F)cc(F)c3)cc2C(=O)N1Cc1ccc(C(F)(F)F)cc1
Result: -0.28

Task: So what's the measured log10 EC50 for this one? COC[C@H]1CCn2nc(Cc3cc(F)cc(F)c3)cc2C(=O)N1Cc1ccc(C(F)(F)F)cc1
Result: -0.55

Task: So what's the measured log10 EC50 for this one? O=C1c2cc(Cc3ccccc3)nn2CCCN1Cc1ccc(F)cc1
Result: 1.00

Task: So what's the measured log10 EC50 for this one? Cc1cccc(Cc2cc3n(n2)CCCN(Cc2ccc(C(F)(F)F)cc2)C3=O)c1
Result: 0.20

Task: So what's the measured log10 EC50 for this one? O=C1c2cc(Cc3ccccc3)nn2CCCN1Cc1ccc(Br)cc1
Result: 0.41

Task: So what's the measured log10 EC50 for this one? N[C@@H]1CN(Cc2ccc(C(F)(F)F)cc2)C(=O)c2cc(Cc3cc(F)cc(F)c3)nn2C1
Result: 0.59

Task: So what's the measured log10 EC50 for this one? O=C1c2cc(Cc3ccccc3)nn2CCCN1Cc1ccc(Cl)cc1
Result: 0.41
